System: MS2 coat protein
protocolText: apparent Kd, MS2 coat protein; higher = weaker binding; RNA-MaP array; FMN 200 µM where present
measurementSetup: ligand present: flavin mononucleotide; designed as: OFF switch for flavin mononucleotide
observedProperty: apparent Kd (nM)
Report the value in nM with no unit label.

Challenge: Tell me the measured apparent Kd of AAAGAGCGAGGAUAUACAUGAGGAUCACCCAUGUGAAGAUGCAUGGUCUGAACGUCUGGUAGAAGGCGUAUGAA , please.
Response given: 182

Challenge: Tell me the measured apparent Kd of UGGACUGGGCAGAAGGGACAUGAGGAUCACCCAUGUCUUGGGCUACUUCAGUCAGGAUAUGCCCGUUGAAUAUCCGUGCAUCAA , please.
Response given: 52.6

Challenge: Tell me the measured apparent Kd of GGAUUACAAAUUUAUUUAAUACGAACAUGAGGAUCACCCAUGUAGGAUAUGCUAGUUAAGUAAUAGCAGAAGGACAUGUGCCUU , please.
Response given: 30.6

Challenge: Tell me the measured apparent Kd of UGAACUAUGUAGAAGGCCCAUAUUUAUACUUAGGGAGGAUAUACAUGAGGAUCACCCAUGUAUAGAGCAAGUGGACUUGUCACU , please.
Response given: 20.2

Challenge: Tell me the measured apparent Kd of CUUGUUGUCGAGGAUAUGCACCAGCUCACUGACGCAGAAGGCGACACAUGAGGAUCACCCAUGUCAGUUCGCGU , please.
Response given: 225

Challenge: Tell me the measured apparent Kd of CCUCCGCAUUAGGAUAUCGUCACGGAAACGUGACGAGAAGGAAUGACAUGAGGAUCACCCAUGUUAACGUGAUG , please.
Response given: 270

Challenge: Tell me the measured apparent Kd of GUUGCUACUGAGGAUAUUAUUCUACCCGACUGAUAAGAAGGCAGUACAUGAGGAUCACCCAUGUGGGUAGCCAG , please.
Response given: 22.5

---

Test system: MS2 coat protein
protocolText: apparent Kd, MS2 coat protein; higher = weaker binding; RNA-MaP array
measurementSetup: designed as: OFF switch for flavin mononucleotide; no ligand
Assignment: determine reported apparent Kd for the given sequences.
Report the value in nM with no unit label.

Challenge: Tell me the measured apparent Kd of GCCAAGCAGGGAGGAUAUACAGGCAAUAAGUGAUUAGAAGAACAAAACAUGAGGAUCACCCAUGUGAAGAAGGCCCAUUCGGAA , please.
Response given: 12.1

Challenge: Tell me the measured apparent Kd of CGAUUACAUGAGGAUCACCCAUGUCAGGAUAUAAUUUGCACAGCCGGGCAGGCCGUGGUUAGAAGGGACGUACA , please.
Response given: 9.09

Challenge: Tell me the measured apparent Kd of GACUACAUAGUCAGGAUAUGUGAUUAAUAAUAUCAACAGAAGGGACAUGAGGAUCACCCAUGUGUGCGAGUGGA , please.
Response given: 14.5

Challenge: Tell me the measured apparent Kd of AUAACUGCAGGAUAUACAGGAACGCCUAGAAGGAUCCUGGAACAUGAGGAUCACCCAUGUAGAAGGGCACGUUU , please.
Response given: 12.3

Challenge: Tell me the measured apparent Kd of GGUUUUUCUGUUAGGAUAUUUCAUGACAGGCGAUGAAAGAAGGAACAUGAGGAUCACCCAUGUGUUUGAGAUAA , please.
Response given: 9.57

Challenge: Tell me the measured apparent Kd of CACCUUCGUCAAGGAUAUGCGUAAUGUAUAAUCGCAGAAGGUGACGCGAUCUUCAUAACAUGAGGAUCACCCAUGUGGUGAACU , please.
Response given: 436

Challenge: Tell me the measured apparent Kd of ACUGCGCACGGGCUCCACAUGAGGAUCACCCAUGUUGAACUGAGAAGGGAAAGAAGAAACUACAUUCAGGAUAUCAUUUCACCA , please.
Response given: 44.5

Challenge: Tell me the measured apparent Kd of CACGAUCGUGAAGGAUAUCGACAUGAGGAUCACCCAUGUUACUCUUACAUCUAUGGUUCAAGUGCCGAGAAGGUCACAGAGGCA , please.
Response given: 13.8

Challenge: Tell me the measured apparent Kd of GAUCUCCGCGAGAAGGCUGAGCGGUCACUAGCCAGAGGAUAUCGUCACGCGCAGGGAAAACAUGAGGAUCACCCAUGUGUAAGU , please.
Response given: 10.7

Challenge: Tell me the measured apparent Kd of UCAUAGUCAGGAUAUUUAUUUGGCGGAGACUGCGGCCACCGAAAGAAGGGACAUGAGGAUCACCCAUGUAUCGG , please.
Response given: 16.3

Challenge: Tell me the measured apparent Kd of AGACAAAAGGAGAAGGAGGUAAAGAUAUAAAGGUGAAGUAAUGGACAUGAGGAUCACCCAUGUACCUAGGAUAUCCAGGGCGAU , please.
Response given: 26.8

Challenge: Tell me the measured apparent Kd of GCUGCCUGGACAUGAGGAUCACCCAUGUGGACAAUACUGGCUUAGGAUAUUUGAUUGAAGUUUGGAAAGAAGGAAGCAUACAGC , please.
Response given: 9.17

Challenge: Tell me the measured apparent Kd of GCUUUAUUAGGAUAUGUAACCGUUAACAUGAGGAUCACCCAUGUUGAUUCUCAAGAGACCACAGAAGGAAUAAAAG , please.
Response given: 289

Challenge: Tell me the measured apparent Kd of UUAGUGAUACUAGGAUAUAGGUAAGACUCUUAACUAGAAGGAGUAGGGACGAAUACAUGAGGAUCACCCAUGUGAUUCUGGUUG , please.
Response given: 21.6

Challenge: Tell me the measured apparent Kd of AUGAGAUGAGGAUAUACUGGGUCCGCAUUAGAAACUUAUCAACAUGAGGAUCACCCAUGUAGAAGGCAUGUGAG , please.
Response given: 25.4

---

Assignment: determine reported apparent Kd for the given sequences.
System: MS2 coat protein
protocolText: apparent Kd, MS2 coat protein; higher = weaker binding; RNA-MaP array
measurementSetup: designed as: OFF switch for flavin mononucleotide; no ligand
Report the value in µM with no unit label.

Challenge: What value of apparent Kd on MS2 coat protein does AUAGUGUAAGGAUAUGUAGAGAGCUAGAAAAUACAAACAAUACAGAAGGUACAUGAGGAUCACCCAUGUGAUUG have?
Response given: 0.0144

Challenge: What value of apparent Kd on MS2 coat protein does ACGCGUUCACAGAAGGCCUACAAAAUUACAUUAGGAGGAUAUGUUACAUGAGGAUCACCCAUGUCAUGGCUGUGUCUCGGUAUC have?
Response given: 0.0308

Challenge: What value of apparent Kd on MS2 coat protein does GUGCACAUGAGGAUCACCCAUGUCUGUGUAUUCCUGCUACCAGAGGAUAUGGCGUGCGUAGCUUACCAGAAGGCUGGUUGUAUC have?
Response given: 0.03

Challenge: What value of apparent Kd on MS2 coat protein does GUGUGGCGCUCAGGAUAUAGAAGGUCGCUAGUUCUAGAAGGGAGCAACGAGGUACCACAUGAGGAUCACCCAUGUUUGGUUGAC have?
Response given: 0.0154

Challenge: What value of apparent Kd on MS2 coat protein does GAACAAUGCCUAGGAUAUCUUACGAUUGAAAACAGAGAAGGAGGGACCGAACAUGAGGAUCACCCAUGUAGAUGUGGGACGUGG have?
Response given: 0.0772

Challenge: What value of apparent Kd on MS2 coat protein does GCGAGGAGGCAGAAGGACUAAAACACGCUACAAGUAGGAUAUGCAUCCUGCACACAUGAGGAUCACCCAUGUAGAUCCUAUCGC have?
Response given: 0.078

Challenge: What value of apparent Kd on MS2 coat protein does CGUAUACAUGAGGAUCACCCAUGUACUCCCGUGUAAGGCGAGAAGGAUAUGUUCCCGGCUACUUAACAGAAGGUCUUGGCGCUU have?
Response given: 0.0149

Challenge: What value of apparent Kd on MS2 coat protein does AGAUUUGCAGGAUAUACCGGUACAAACAUGAGGAUCACCCAUGUAACGCAUGGUCAGUGAGUAGAAGGGCACGUAG have?
Response given: 0.0314

Challenge: What value of apparent Kd on MS2 coat protein does CGGCAGAAAGUGAGGAUAUCGGUUGUAUGAGGAGACGAGAAGGCACAUGAGGAUCACCCAUGUUAGUAGUCCAC have?
Response given: 0.00954

Challenge: What value of apparent Kd on MS2 coat protein does UAGUAGUAAGGAUAUGCGGCACCGACGCCUCCGAACCGCGGGCAGAAGGUACAUGAGGAUCACCCAUGUGGGUA have?
Response given: 0.169

Challenge: What value of apparent Kd on MS2 coat protein does UUCAUUUUCUAGGAUAUGUACCAGAAAAUAGUUACAGAAGGAGAGACAUGAGGAUCACCCAUGUUGGCAACAGC have?
Response given: 0.0107

Challenge: What value of apparent Kd on MS2 coat protein does UCCAUACGGUAGGAUAUAUGUACCCAGAAGGGCAUAGAAGGACCCACAUGAGGAUCACCCAUGUUCCUUUGGUG have?
Response given: 0.0244

Challenge: What value of apparent Kd on MS2 coat protein does UCACUGUUAGGAUAUCUCAUAGCAGUAGGUCAGCUAUUUUGAGAGAAGGAACAUGAGGAUCACCCAUGUAAAUA have?
Response given: 0.0196

Challenge: What value of apparent Kd on MS2 coat protein does GUCAACACAGUAGGAUAUCCAAUGCGUAAGCUCGGAGAAGGACUUAACUAGCAGUUUGAUCGACAUGAGGAUCACCCAUGUAAU have?
Response given: 0.0114

Challenge: What value of apparent Kd on MS2 coat protein does GGACAAGAAGAGAAGGGCUUACCAAACCUCAACAUGAGGAUCACCCAUGUCAAAGUGGAAGCAUAGCAGGAUAUCUAACAGCGC have?
Response given: 0.00809

Challenge: What value of apparent Kd on MS2 coat protein does GCUCGAGGGCAAGGAUAUAGGGAGAAACAACGCCUAGAAGGUGCACACAUGAGGAUCACCCAUGUUUCUCUAUGACGGAUCAUC have?
Response given: 0.0181

Challenge: What value of apparent Kd on MS2 coat protein does ACCAGGCAAGGAUAUGGUUCUGUAAACAUGAGGAUCACCCAUGUAUUUAAUUCAUGUUGGCCAGAAGGUGCUUUCG have?
Response given: 0.0149

Challenge: What value of apparent Kd on MS2 coat protein does AUGUUCGUAAAGAAGGAUCAGGUGAUAUAUGUCAACAUGAGGAUCACCCAUGUGCGGGACGUAAGAUAGGAUAUUUGAGAUCAU have?
Response given: 0.0143

Challenge: What value of apparent Kd on MS2 coat protein does CCAGAUUUAGGAUAUACAUGAGGAUCACCCAUGUGGGAUUUAGUGCGGUUUAUGCAACGUAGAAGGAAAUCAGG have?
Response given: 0.0316

Challenge: What value of apparent Kd on MS2 coat protein does UGAAAUUUGGAGAAGGGACGCACGUGGUAGUGGCUACAUGAGGAUCACCCAUGUUAAUUGAUCAGUCAGGAUAUCCGGUUGUUC have?
Response given: 0.0181

Challenge: What value of apparent Kd on MS2 coat protein does GGAUCGCUCUACAUGAGGAUCACCCAUGUGACUGAGCUAGAUAGAAGGAGAUGGCGAAAUACUUUCUAGGAUAUAUUGUAGCUA have?
Response given: 0.00805

Challenge: What value of apparent Kd on MS2 coat protein does UGAUCUGGCGGAGGAUAUAUGCCAGUAAAACUGAUAGAAGGCCGUGAUAUAACAUGAGGAUCACCCAUGUGAGCUCCUUAGCGA have?
Response given: 0.0205

Challenge: What value of apparent Kd on MS2 coat protein does GGAGUUCUAGGAUAUAAUUCGUGGUACAUGAGGAUCACCCAUGUCGCUGAUGCAUCGCCUUUAGAAGGAGAGAUCU have?
Response given: 0.00903

Challenge: What value of apparent Kd on MS2 coat protein does AUAACACAUGAGGAUCACCCAUGUAAGGAUAUAGUAGCAAUGGAAAGAAAUCUAUCCUCUAGAAGGUACACGGC have?
Response given: 0.0185

Challenge: What value of apparent Kd on MS2 coat protein does GUCUGGUCAGGAUAUUCGAGGUGUAACAUGAGGAUCACCCAUGUUUCUUAGCUAGAGGCCGAAGAAGGGACGGGUA have?
Response given: 0.0114

Challenge: What value of apparent Kd on MS2 coat protein does GUCUGGAUGUAGGAUAUGUGUCCGUGCUAGGGUACAGAAGGACAGACAUGAGGAUCACCCAUGUGGAUCAACCG have?
Response given: 0.0226

Challenge: What value of apparent Kd on MS2 coat protein does ACCGUAUGGGAGAAGGAACUAUGUUAGACAUGAGGAUCACCCAUGUUCCAGAAUGUAGGGCUCAGUUAGGAUAUCCAAUUCAGA have?
Response given: 0.0111

Challenge: What value of apparent Kd on MS2 coat protein does GCAAUUUGACGAGGAUAUGGUCUAUUUUUUUACCCAGAAGGCGUCGCCCACAUGAGGAUCACCCAUGUUCAUGGAUAGGAAAUA have?
Response given: 0.0119

Challenge: What value of apparent Kd on MS2 coat protein does CUCGUGUUAGGAUAUGACGUCCCGCGCUCCGUUAACUAAUUUCAGAAGGAACAUGAGGAUCACCCAUGUUGGUG have?
Response given: 0.15
